B1: Twister Ribozyme (parent)
chain: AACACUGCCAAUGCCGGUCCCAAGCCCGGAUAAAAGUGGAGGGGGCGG

variants of: B1; assay: self-cleavage, relative activity (ratio to wild type); higher = more cleavage; co-transcriptional
Field: self-cleavage. Provide a value for each of the variants that follow.
Answers are plain numbers.

As a guide, the following entries are already answered.
A2C G44U
0.0787
C19A A35U
0.29
C3U C20G
0.0703
A2G C9G
0.0579
G17A G28U
0.258

Quick request: self-cleavage for each listed item, please.
1. A30G G47C
2. A10G G48A
3. G16C A34G
4. A2G C20U
5. C26U A34U
6. C14A A22G
7. C3U A10U
8. A10C U18C

Output:
0.534
0.902
0.298
0.115
0.124
0.407
0.584
0.787

Quick request: self-cleavage for each listed item, please.
1. G24A A32C
2. G17A A40C
3. G24U C46A
4. U12G C14A
5. C26U G36C
6. A10C G39U

Output:
1: 0.0703; 2: 0.105; 3: 0.0884; 4: 0.726; 5: 0.129; 6: 0.148

Quick request: self-cleavage for each listed item, please.
1. A32G G36U
2. A4G G7C
3. A4C C15G
4. A10U G16U

Output:
1: 0.244; 2: 0.0363; 3: 0.0431; 4: 0.802

Quick request: self-cleavage for each listed item, please.
1. C8G G24A
2. G36C A40G
3. A1G A4G
4. A22G U37A
5. G7U G44U
6. U12G G38U
7. G29U G38C

Output:
1. 0.203
2. 0.0963
3. 0.237
4. 0.152
5. 0.0819
6. 0.76
7. 0.778

Quick request: self-cleavage for each listed item, please.
1. A1G G13C
2. A1C C15A
3. C8U G17A
4. A22U G36U
5. C21A G45C
6. C14A G36C
7. C25G A32U
8. C14G A33U

Output:
1: 0.223; 2: 0.179; 3: 0.119; 4: 0.074; 5: 0.109; 6: 0.351; 7: 0.19; 8: 0.172

Quick request: self-cleavage for each listed item, please.
1. C21G A23C
2. G7A A22G
3. A10U G45U
4. C20U C25A
5. A2G G24U

Output:
0.0558
0.0675
0.871
0.078
0.0773

Quick request: self-cleavage for each listed item, please.
1. U6A G45U
2. A1U G43A
3. A11C G43A

Output:
1. 0.695
2. 0.0467
3. 0.167
